- System: SKOV3 ovarian cancer cells
- protocolDescription: Inherent cytotoxicity (dark toxicity) in SKOV3 cells (AlamarBlue viability)
- Type: cell-based, Human
- conditionInfo: human, 24 h
Counter-ions that a name gives are not always drawn.
Lab note: anything with Cellular Toxicity: Dark toxicity IC10 at or over 20 µM counts as label 1; the rest go in label 0.

compound	className
C=Cc1c(C)c2cc3nc(c(C)c4cc(C)c(cc5nc(cc1[nH]2)C(C)=C5CC)[nH]4)[C@@H](CCC(=O)O)[C@@H]3C [Compound 1a, phyllochlorin potassium salt]	label 0
C=Cc1c(C)c2cc3nc(c(C)c4cc(C)c(cc5nc(cc1[nH]2)C(C)=C5CC)[nH]4)[C@@H](CCC(=O)O)[C@@H]3C [Compound 1c, phyllochlorin choline salt]	label 1
C=Cc1c(C)c2cc3nc(c(C)c4cc(C)c(cc5nc(cc1[nH]2)C(C)=C5CC)[nH]4)[C@@H](CCC(=O)N(C)CCOCCO)[C@@H]3C	label 1
C=Cc1c(C)c2cc3nc(c(C)c4cc(C)c(cc5nc(cc1[nH]2)C(C)=C5CC)[nH]4)[C@@H](CCC(=O)N(C)CCCCCS[C@@H]1O[C@H](CO)[C@@H](O)[C@H](O)[C@H]1O)[C@@H]3C	label 0
C=Cc1c(C)c2cc3nc(c(C)c4cc(C)c(cc5nc(cc1[nH]2)C(C)=C5CC)[nH]4)[C@@H](CCC(=O)O)[C@@H]3C [Compound 1b, phyllochlorin lithium salt]	label 1
C=Cc1c(C)c2cc3nc(c(C)c4cc(C)c(cc5nc(cc1[nH]2)C(C)=C5CC)[nH]4)[C@@H](CCC(=O)N(C)CCCS[C@H]1O[C@H](CO)[C@@H](O)[C@H](O)[C@@H]1O)[C@@H]3C	label 1

###

The following compounds are shown together with reported IC90 values.
- Test system: SKOV3 ovarian cancer cells
- protocolDescription: Phototoxicity in SKOV3 cells (652 nm laser, AlamarBlue viability)
- Type: cell-based, Human
- conditionInfo: SKOV3; 24 h uptake; 652 nm laser 50 mW/cm2 5 mins (15 J/cm2); viability 24 h later; read-out: Cellular Toxicity: Phototoxicity IC90
- Experimental: Human ovarian cancer cell line SKOV3 (ATCC #HTB-77) was maintained in Dulbecco's Modified Eagle Medium/Nutrient Mixture F-12 (DMEM/F-12), supplemented with 10% v/v Fetal Bovine Serum, 100 U/mL penicillin and 100 µg/mL streptomycin. Monolayer cultures were grown in a humidified incubator at 37° C. with 5% CO2. […]
Structures can show the parent of a compound that is named as a salt.

compound	IC90 [nM]
C=Cc1c(C)c2cc3nc(c(C)c4[nH]c(cc5nc(cc1[nH]2)C(C)=C5CC)c(C)c4C(=O)O)[C@@H](CCC(=O)O)[C@@H]3C [Chlorin e4 disodium, chlorin e4 disodium, reference compound]	21300
C=Cc1c(C)c2cc3nc(c(C)c4cc(C)c(cc5nc(cc1[nH]2)C(C)=C5CC)[nH]4)[C@@H](CCC(=O)O)[C@@H]3C [Compound 1c, phyllochlorin choline salt]	210
C=CC1=C(C)c2cc3nc(c(C)c4cc(C)c(cc5[nH]c(cc1n2)c(C)c5CC)[nH]4)[C@@H](CCC(=O)O)[C@@H]3C [Phyllochlorin free acid, phyllochlorin free acid]	290
C=Cc1c(C)c2cc3nc(c(C)c4cc(C)c(cc5nc(cc1[nH]2)C(C)=C5CC)[nH]4)[C@@H](CCC(=O)O)[C@@H]3C [Compound 1e, phyllochlorin meglumine salt]	1790

###

- protocolDescription: Singlet oxygen (1O2) production rate
- Assay type: physicochemical
Structures can show the parent of a compound that is named as a salt.
outcomeMeasure: Singlet Oxygen Production (slope) 1O2

compound	outcomeMeasure	measuredNumber
C=Cc1c(C)c2cc3nc(c(C)c4cc(C)c(cc5nc(cc1[nH]2)C(C)=C5CC)[nH]4)[C@@H](CCC(=O)N(C)CCCS[C@@H]1O[C@H](CO)[C@@H](O)[C@H](O)[C@H]1O)[C@@H]3C [Compound 6]	Singlet Oxygen Production (slope) 1O2	1700.0
C=Cc1c(C)c2cc3nc(c(C)c4cc(C)c(cc5nc(cc1[nH]2)C(C)=C5CC)[nH]4)[C@@H](CCC(=O)N(C)CCOCCO)[C@@H]3C [Compound 18]	Singlet Oxygen Production (slope) 1O2	1060.0
C=Cc1c(C)c2cc3nc(c(C)c4cc(C)c(cc5nc(cc1[nH]2)C(C)=C5CC)[nH]4)[C@@H](CCC(=O)O)[C@@H]3C [Compound 1e, phyllochlorin meglumine salt]	Singlet Oxygen Production (slope) 1O2	938.8
C=Cc1c(C)c2cc3nc(c(C)c4cc(C)c(cc5nc(cc1[nH]2)C(C)=C5CC)[nH]4)[C@@H](CCC(=O)N(C)CCCCCS[C@@H]1O[C@H](CO)[C@@H](O)[C@H](O)[C@H]1O)[C@@H]3C [Compound 8]	Singlet Oxygen Production (slope) 1O2	1314.0
C=Cc1c(C)c2cc3nc(c(C)c4cc(C)c(cc5nc(cc1[nH]2)C(C)=C5CC)[nH]4)[C@@H](CCC(=O)N(C)CCO)[C@@H]3C [Compound 10]	Singlet Oxygen Production (slope) 1O2	1691.0
C=Cc1c(C)c2cc3nc(c(C)c4cc(C)c(cc5nc(cc1[nH]2)C(C)=C5CC)[nH]4)[C@@H](CCC(=O)N(C)CCCCCO)[C@@H]3C [Compound 7]	Singlet Oxygen Production (slope) 1O2	1494.0
C=Cc1c(C)c2cc3nc(c(C)c4cc(C)c(cc5nc(cc1[nH]2)C(C)=C5CC)[nH]4)[C@@H](CCC(=O)N(C)CCC[S+]([O-])[C@@H]1O[C@H](CO)[C@@H](O)[C@H](O)[C@H]1O)[C@@H]3C (stereo partly shown) [Compound 9]	Singlet Oxygen Production (slope) 1O2	1396.0
C=Cc1c(C)c2cc3nc(c(C)c4cc(C)c(cc5nc(cc1[nH]2)C(C)=C5CC)[nH]4)[C@@H](CCC(=O)N(C)CCCS[C@@H]1O[C@H](COC(C)=O)[C@@H](OC(C)=O)[C@H](OC(C)=O)[C@H]1OC(C)=O)[C@@H]3C [Compound 11]	Singlet Oxygen Production (slope) 1O2	1434.0
C=Cc1c(C)c2cc3nc(c(C)c4cc(C)c(cc5nc(cc1[nH]2)C(C)=C5CC)[nH]4)[C@@H](CCC(=O)N(C)CCCS[C@@H]1O[C@H](CO)[C@@H](O)[C@H](O)[C@@H]1O)[C@@H]3C [Compound 17]	Singlet Oxygen Production (slope) 1O2	1265.0
C=Cc1c(C)c2cc3nc(c(C)c4cc(C)c(cc5nc(cc1[nH]2)C(C)=C5CC)[nH]4)[C@@H](CCC(=O)O)[C@@H]3C [Compound 1c, phyllochlorin choline salt]	Singlet Oxygen Production (slope) 1O2	1229.0

###

The following molecules are shown together with reported IC90 values.
- Tested on: SKOV3 ovarian cancer cells
- protocolDescription: Phototoxicity in SKOV3 cells (652 nm laser, AlamarBlue viability)
- Type: cell-based, Human
- conditionInfo: Homo sapiens, SK-OV-3, light or radiation study, SKOV3; read-out: Phototoxicity apparent IC90
outcomeMeasure: IC90

chemicalStructure	result
C=Cc1c(C)c2cc3nc(c(C)c4cc(C)c(cc5nc(cc1[nH]2)C(C)=C5CC)[nH]4)[C@@H](CCC(=O)N(C)CCCCCO)[C@@H]3C	< 100 nM
C=Cc1c(C)c2cc3nc(c(C)c4cc(C)c(cc5nc(cc1[nH]2)C(C)=C5CC)[nH]4)[C@@H](CCC(=O)N(C)CCCS[C@@H]1O[C@H](CO)[C@@H](O)[C@H](O)[C@H]1O)[C@@H]3C	< 100 nM
C=Cc1c(C)c2cc3nc(c(C)c4cc(C)c(cc5nc(cc1[nH]2)C(C)=C5CC)[nH]4)[C@@H](CCC(=O)N(C)CCCCCS[C@@H]1O[C@H](CO)[C@@H](O)[C@H](O)[C@H]1O)[C@@H]3C	< 100 nM
C=Cc1c(C)c2cc3nc(c(C)c4cc(C)c(cc5nc(cc1[nH]2)C(C)=C5CC)[nH]4)[C@@H](CCC(=O)NCCCS[C@@H]1O[C@H](CO)[C@@H](O)[C@H](O)[C@H]1O)[C@@H]3C	< 100 nM
C=Cc1c(C)c2cc3nc(c(C)c4cc(C)c(cc5nc(cc1[nH]2)C(C)=C5CC)[nH]4)[C@@H](CCC(=O)N(C)CCCO)[C@@H]3C	< 100 nM

###

The following compounds are shown together with reported Singlet Oxygen Production (slope) 1O2 values.
- protocolDescription: Singlet oxygen (1O2) production rate
- Assay type: physicochemical
Counter-ions that a name gives are not always drawn.

compound	Singlet Oxygen Production (slope) 1O2
C=Cc1c(C)c2cc3nc(c(C)c4cc(C)c(cc5nc(cc1[nH]2)C(C)=C5CC)[nH]4)[C@@H](CCC(=O)N(C)CCCO[C@@H]1O[C@H](CO)[C@@H](O)[C@H](O)[C@H]1O)[C@@H]3C [Compound 15]	976.4
C=Cc1c(C)c2cc3nc(c(C)c4cc(C)c(cc5nc(cc1[nH]2)C(C)=C5CC)[nH]4)[C@@H](CCC(=O)N(C)CCCS[C@@H]1O[C@H](COC(=O)[C@@H](N)C(C)C)[C@@H](O)[C@H](O)[C@H]1O)[C@@H]3C [Compound 12, hydrochloride]	1121.0
C=CC1=C(C)c2cc3nc(c(C)c4cc(C)c(cc5[nH]c(cc1n2)c(C)c5CC)[nH]4)[C@@H](CCC(=O)O)[C@@H]3C [Phyllochlorin free acid, phyllochlorin free acid]	1335.5
C=Cc1c(C)c2cc3nc(c(C)c4[nH]c(cc5nc(cc1[nH]2)C(C)=C5CC)c(C)c4C(=O)O)[C@@H](CCC(=O)O)[C@@H]3C [Chlorin e4 disodium, chlorin e4 disodium, reference compound]	998.2
